// data source = the supplement of paper PMC9112550

Test system: Escherichia coli TOP10
Test: shrunken log2 fold change of peptide-encoding DNA abundance (4.5 h post-induction vs induction); higher = less antimicrobial activity (less host growth inhibition)
Conditions: time post-induction: 4.5 h; library: site-saturation at positions 5, 18, 19, 20
Each record gets a class by shrunken log2 fold change: lower band: < -0.1; central band: ≥ -0.1 and < 0.07; upper band: ≥ 0.07

INSERT INTO assay_data (chain, cat) VALUES
  ('RRIRCRPPRLPRPRPRPHFWPRP', 'upper band'),
  ('RRIRPRPPRLPRPRPRPWCWPRP', 'upper band'),
  ('RRIRNRPPRLPRPRPRPKKYPRP', 'lower band'),
  ('RRIRSRPPRLPRPRPRPLFCPRP', 'lower band'),
  ('RRIRARPPRLPRPRPRPKCAPRP', 'upper band');

Would you kindly look at the next entry?
For this sequence, which bin applies? RRIRRRPPRLPRPRPRPIWHPRP
upper band

* * *

System: Escherichia coli TOP10
Test: shrunken log2 fold change of peptide-encoding DNA abundance (4.5 h post-induction vs induction); higher = less antimicrobial activity (less host growth inhibition)
Details: time post-induction: 4.5 h; library: site-saturation at positions 5, 18, 19, 20
Quick reference for shrunken log2 fold change among some sequences
Would you mind answering with just the numeric figure?

INSERT INTO results (chain, observed) VALUES
  ('RRIRMRPPRLPRPRPRPHTWPRP', -0.0904),
  ('RRIRERPPRLPRPRPRPEWKPRP', 0.0685),
  ('RRIRERPPRLPRPRPRPSTQPRP', -0.177),
  ('RRIRVRPPRLPRPRPRPGCMPRP', -0.076),
  ('RRIRWRPPRLPRPRPRPYNLPRP', -0.991);

Please turn your attention to the following entry.
// field: shrunken log2 fold change; key: RRIRDRPPRLPRPRPRPGNFPRP ; value = -0.0885

* * *

Tested on: Escherichia coli TOP10;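 also: peptides expressed intracellularly from a pBAD plasmid library in pooled LB shake-flask culture, induced with 0.3% L-arabinose, DNA abundance read by NGS, three biological replicates, DESeq2 with apeglm shrinkage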
Test: shrunken log2 fold change of peptide-encoding DNA abundance (4.5 h post-induction vs induction); higher = less antimicrobial activity (less host growth inhibition)
Details: time post-induction: 4.5 h; library: site-saturation at positions 5, 18, 19, 20
Quick reference for shrunken log2 fold change among some sequences
Would you mind answering with just the numeric figure?

INSERT INTO measurements (chain, measured_parameter, observed) VALUES
  ('RRIRPRPPRLPRPRPRPDSDPRP', 'shrunken log2 fold change', 0.0303),
  ('RRIRWRPPRLPRPRPRPTVQPRP', 'shrunken log2 fold change', 0.116),
  ('RRIRHRPPRLPRPRPRPEANPRP', 'shrunken log2 fold change', 0.00386),
  ('RRIRGRPPRLPRPRPRPNAVPRP', 'shrunken log2 fold change', 0.924),
  ('RRIRLRPPRLPRPRPRPVWLPRP', 'shrunken log2 fold change', 0.242),
  ('RRIRLRPPRLPRPRPRPKLGPRP', 'shrunken log2 fold change', -0.123);

// field: shrunken log2 fold change; key: RRIRMRPPRLPRPRPRPSTVPRP ; value = -0.0552

// field: shrunken log2 fold change; key: RRIRIRPPRLPRPRPRPVPDPRP ; value = -0.0498

// field: shrunken log2 fold change; key: RRIRQRPPRLPRPRPRPDYQPRP ; value = 0.00672

// field: shrunken log2 fold change; key: RRIRYRPPRLPRPRPRPGWYPRP ; value = -0.344

// field: shrunken log2 fold change; key: RRIRWRPPRLPRPRPRPFNTPRP ; value = -0.0751

// field: shrunken log2 fold change; key: RRIRPRPPRLPRPRPRPNHTPRP ; value = -0.21

// field: shrunken log2 fold change; key: RRIRCRPPRLPRPRPRPLRQPRP ; value = 0.713

// field: shrunken log2 fold change; key: RRIRVRPPRLPRPRPRPQLNPRP ; value = -0.292

// field: shrunken log2 fold change; key: RRIRIRPPRLPRPRPRPWYCPRP ; value = -0.0341
